Values from PubChem BioAssay (NCATS)

System under test: Pyruvate kinase PKM (Homo sapiens) (UniProt P14618)
Sequence (P14618 whole entry, looked up): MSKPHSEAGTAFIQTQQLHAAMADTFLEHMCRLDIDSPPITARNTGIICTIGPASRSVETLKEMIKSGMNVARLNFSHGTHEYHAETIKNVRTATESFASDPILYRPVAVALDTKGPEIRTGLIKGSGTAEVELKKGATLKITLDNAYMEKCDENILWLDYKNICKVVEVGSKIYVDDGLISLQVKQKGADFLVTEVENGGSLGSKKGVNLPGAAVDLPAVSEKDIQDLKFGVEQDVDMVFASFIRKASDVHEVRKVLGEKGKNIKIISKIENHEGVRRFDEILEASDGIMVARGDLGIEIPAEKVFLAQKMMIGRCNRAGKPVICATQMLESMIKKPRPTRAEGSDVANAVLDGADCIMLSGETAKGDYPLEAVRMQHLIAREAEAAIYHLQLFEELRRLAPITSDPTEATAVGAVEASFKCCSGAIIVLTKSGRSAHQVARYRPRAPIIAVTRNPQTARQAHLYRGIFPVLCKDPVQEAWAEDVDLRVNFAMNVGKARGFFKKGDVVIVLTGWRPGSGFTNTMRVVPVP
Test method notes: qHTS Assay for Inhibitors of Human Muscle Pyruvate Kinase (AID 958)
Condition: purified human PKM enzyme activity
Results filed as inconclusive are left out. Calls of active or inactive are those of the source. Calls come from the whole dose curve; as a rule, active = well fitted inhibition curve with a large enough effect; inconclusive = small, poorly fitted or top-dose-only effect; inactive = no such curve, though single readings can be large or run the other way.

- Smiles input: "O=Nc1c(-c2c(O)[nH]c3ccccc23)[nH]c2ccccc12"
  Potency: "12.6 µM (active)"
- Smiles input: "Cc1cccc(/C=C\\c2ccccc2)n1"
  Potency: "15.8 µM (active)"
- Smiles input: "N#C/C(=C\\c1ccc(O)c(O)c1)C(=O)Nc1ccccc1"
  Potency: "25.1 µM (active)"
- Smiles input: "Fc1cccc(/C=N\\N=C/c2cccc(F)c2)c1"
  Potency: "2.51 µM (active)"

----------
Test method notes: qHTS for Inhibitors of Plasmodium falciparum (CP250) proliferation (AID 504320)
Condition: P. falciparum CP250 in erythrocytes, SYBR Green DNA, 72 h; series mostly up to 6.7 µM
Inconclusive results are not listed. Activity calls are given as the source filed them. The call rests on the fitted dose curve; in most records, active means well fitted inhibition curve with a large enough effect; inconclusive means small, poorly fitted or top-dose-only effect, or effect the other way; inactive means flat fitted curve, though single readings scatter.
Reported property: outcome

- Compound: "CC1(OC(=O)C2CCCC2)C(=O)C=C2C=C(C3CC3)OC=C2C1=O (stereo unspecified)"
  Recorded measurement: "inactive"
- Compound: "C[C@H]1Cc2c(COc3ccccc3)nc3c(c2CO1)CN(C(=O)c1cccnc1)CC3"
  Recorded measurement: "inactive"
- Compound: "CCc1cc2c(nc1CC)CCN(CCC(C)=NO[C@@H](C)c1cn([C@H](CO)Cc3ccccc3)nn1)C2"
  Recorded measurement: "inactive"
- Compound: "CCN1C(=O)[C@@H]2[C@H]3[C@H](O)[C@H](O)CC(=NOCC[C@@H]4C=C[C@H](OC(C)=O)[C@@H](COC(C)=O)O4)[C@@H]3CC[C@H]2C1=O"
  Recorded measurement: "inactive"
- Compound: "CC(=O)OC[C@H]1O[C@H](CC=NOC[C@@H](O)[C@H]2O[C@@H]3OC(C)(C)O[C@H]3[C@@H]2O)C=C[C@H]1OC(C)=O"
  Recorded measurement: "inactive"
- Compound: "O=c1oc2ccccc2c2c1[C@H]1O[C@](c3ccsc3)(Cc3c1ccc1ccccc31)O2"
  Recorded measurement: "inactive"
- Compound: "COC(=O)CC(Oc1c(C)n(C)c2ccccc2c1=O)c1ccccc1 (stereo unspecified)"
  Recorded measurement: "inactive"
- Compound: "O=C(NCCOc1ccccc1)O[C@@H]1C(=O)c2cc(Br)ccc2O[C@H]1c1ccc2c(c1)OCO2"
  Recorded measurement: "inactive"
- Compound: "COC(=O)N[C@@H](c1cccc(F)c1)[C@]1(C(=O)OC)CCCC1=O"
  Recorded measurement: "inactive"
- Compound: "C[C@@H]1C=CCCO[C@]12C(=O)N(Cc1ccc(F)cc1)c1cccc(Br)c12"
  Recorded measurement: "inactive"
- Compound: "CCN1C(=S)NC(c2cccs2)C(C(=O)OC)=C1C (stereo unspecified)"
  Recorded measurement: "inactive"
- Compound: "C=CCN1C=C2C(=O)C(C)(OC(=O)c3ccco3)C(=O)C(C=C)=C2C=C1C1CC1 (stereo unspecified)"
  Recorded measurement: "inactive"
- Compound: "CC(C)=CCCC(C)=CCN1C(=O)[C@@]2(C[C@@H](C)C[C@@H](C)O2)c2ccccc21"
  Recorded measurement: "inactive"
- Compound: "COc1cccc([C@@H]2Oc3ccc(Br)cc3C(=O)[C@@H]2OC(=O)N[C@H]2CCCc3ccccc32)c1"
  Recorded measurement: "inactive"
- Compound: "O=C1[C@H]2[C@@H]3[C@@H](O)[C@H](O)CC(=NOCc4ccccc4)[C@H]3CC[C@H]2C(=O)N1C[C@@H]1CCCO1"
  Recorded measurement: "inactive"
- Compound: "C[C@@H]1C(c2ccccc2)CC(=O)C(=O)C[C@@H]1C(=O)N1CCCC1 (stereo partly specified)"
  Recorded measurement: "inactive"
- Compound: "C[C@H]1C[C@@H](C)O[C@@]2(C1)C(=O)N(Cc1ccc(F)cc1)c1ccccc12"
  Recorded measurement: "inactive"
- Compound: "COc1ccc(O[C@H]2C=C[C@@H](c3ccccc3)O[C@H]2COC(=O)NCc2cccc3ccccc23)cc1"
  Recorded measurement: "inactive"
- Compound: "C[C@@H]1CC2CCC[C@@H]2[C@]2(O1)C(=O)Nc1cccc(Br)c12 (stereo partly specified)"
  Recorded measurement: "inactive"
- Compound: "C=CCOC(=O)C(C(C)=O)[C@@H](NC(=O)OC)c1cccc(C)c1 (stereo partly specified)"
  Recorded measurement: "inactive"
- Compound: "CCCNC(=O)OC[C@H]1O[C@H](CCON=C2C[C@@H](O)[C@@H](O)[C@@H]3[C@H]4C(=O)N(CC)C(=O)[C@@H]4CC[C@H]23)C=C[C@H]1Oc1ccc(OC)cc1"
  Recorded measurement: "inactive"
- Compound: "CCOC(=O)C1=CN(CCCc2cn(Cc3ccccc3)nn2)C(=O)NC1c1ccccc1 (stereo unspecified)"
  Recorded measurement: "inactive"
- Compound: "COCC(=O)C(C(=O)OC)[C@H](CCc1ccccc1)NC(=O)OC (stereo partly specified)"
  Recorded measurement: "inactive"
- Compound: "C=CC1=C2C=C(C3CC3)N(CC3CC3)C=C2C(=O)C(C)(OC(=O)c2ccco2)C1=O (stereo unspecified)"
  Recorded measurement: "inactive"
- Compound: "C=CCC(C)(NCc1ccccc1)C(=O)OCC (stereo unspecified)"
  Recorded measurement: "inactive"
- Compound: "COCCN1C(=O)N[C@@H](c2cccc(C(F)(F)F)c2)[C@H](C(=O)OC)[C@H]1C"
  Recorded measurement: "inactive"
- Compound: "COC(=O)c1ccc(CN2C(=O)[C@]3(OCCC=C[C@@H]3C)c3cc(OC)ccc32)cc1"
  Recorded measurement: "inactive"
- Compound: "COC(=O)C(C(=O)OC)[C@@H]1O[C@@]23COCC[C@]2(C)[C@@H]3c2ccccc21"
  Recorded measurement: "inactive"
- Compound: "CC(CCC(=O)OC[C@H]1O[C@H](C#Cc2ccccc2)C=C[C@H]1Oc1ccc(C)cc1)=NO[C@H](C)c1cn([C@H](CO)Cc2ccccc2)nn1"
  Recorded measurement: "inactive"
- Compound: "CC=CC(=O)C[C@H]1CC[C@@H](C)[C@@H](CCO)O1"
  Recorded measurement: "inactive"
- Compound: "C=C(C(C)=O)C(O)c1cccc(OC)c1 (stereo unspecified)"
  Recorded measurement: "inactive"
- Compound: "CCCCC1=CC2=C(c3ccco3)C(=O)C(C)(OC(=O)c3ccc(OC)cc3)C(=O)C2=CN1Cc1ccccc1 (stereo unspecified)"
  Recorded measurement: "inactive"
- Compound: "CC1(O)C(=O)C=C2C=C(c3ccc(C#N)cc3)OC=C2C1=O (stereo unspecified)"
  Recorded measurement: "inactive"
- Compound: "CC#CCN1C(=O)N(C)C(c2ccccc2)C(C(=O)OC)=C1C (stereo unspecified)"
  Recorded measurement: "inactive"
- Compound: "CC1(OC(=O)C2CCCC2)C(=O)C=C2C=C3CCCCN3C=C2C1=O (stereo unspecified)"
  Recorded measurement: "inactive"
- Compound: "CCCCn1c(C)cc2c(c1=O)[C@H]1O[C@](CCCC)(Cc3cc(C#N)ccc31)O2"
  Recorded measurement: "inactive"
